Reported TGI values for a set of compounds
# Tested on: OVCAR-5 ovarian
# assay_remarks: NCI tumour cell line growth inhibition, 48 h

• COc1ccc(OC)c(C(Cc2ccnc3ccccc23)Cc2ccnc3ccccc23)c1 = > 10 µM
• CN(CCO)c1ccc(N2Cc3ccccc3OC3=C2C(=O)c2c(O)ccc(O)c2C3=O)cn1 = 0.997 µM
• O=C(/C=C/c1ccc(OCc2cccc(Cl)c2)cc1)NO = 71.5 µM
• CC1=C(C(=O)Nc2ccc(Cl)c(Cl)c2)C(c2cccc(Oc3ccccc3)c2)NC(=O)N1 (centres undefined) = 33 µM
• COC(=O)C1=C(C(=O)Nc2cccnc2Cl)N(c2ccc(OC)cc2[N+](=O)[O-])C(c2ccc(C)cc2)=CC1c1ccc(OC)cc1OC (centres undefined) = > 84.9 µM

q: Quickly give me recorded TGI for CN1C(=O)c2ccccc2OC12C=Cc1ccc(O)cc1O2 (centres undefined)
a: > 100 µM

q: Hello, please tell me recorded TGI for this one: CC1=NC(=Cc2cc(Br)cc(Br)c2)C(=O)N1n1c(-c2ccccc2)nc2ccccc2c1=O
a: > 100 µM

q: Give the reported TGI for this compound. CCCCCCCCCCCCC/C=C/[C@@H](O)[C@H](COC1OC(CO)C(OC2OC(CO)C(O)C(OC3(C(=O)O)CC(O)C(NC(C)=O)C(C(O)C(O)CO)O3)C2O)C(O)C1O)N=[N+]=[N-] (some centres undefined)
a: > 100 µM

q: Tell me measured TGI for O=C(Nc1ccc(-n2ccc3c(NC(=O)c4ccccc4)nccc32)cc1)Nc1ccc(Cl)c(Cl)c1 please.
a: 32.9 µM

q: Tell me measured TGI for CCOc1ccncc1[N+](=O)[O-] please.
a: > 100 µM

q: Consider the compound CCOC(=O)c1nc2ccc(C(F)(F)F)cc2[nH]c1=O and give its recorded TGI.
a: > 100 µM

q: Given CC(=O)O[C@H]1CCC2[C@@H]3CCC4Nc5[nH]ncc5C[C@]4(C)C3CC[C@@]21C (some centres undefined) , respond with its TGI.
a: > 100 µM

q: // fetch TGI given entry COC(=O)c1ccccc1Nc1nc(-c2cccs2)nc2cc(OC)c(OC)cc12
a: > 100 µM

q: Specify reported TGI for the compound shown: c1ccc([P+](CC[P+](c2ccccc2)(c2ccccc2)c2ccccc2)(c2ccccc2)c2ccccc2)cc1
a: > 100 µM

---

# System: NCI-H522 lung
# assay_remarks: NCI tumour cell line growth inhibition, 48 h
TGI: recorded values

Known results for compounds:
- C=C1C(=O)O[C@H]2[C@H]1CC/C(COC(=O)/C=C\C(=O)NCc1ccc(Cn3c(=O)sn(CCCC)c3=O)cc1)=C\CC[C@@]1(C)O[C@@H]21: 1.27 µM
- O=C1NC(=O)C(c2cccc([N+](=O)[O-])c2)=C1Nc1cc(Cl)c(O)c(Cl)c1: > 25 µM
- [N-]=[N+]=Nc1cc(=O)n2c3c(cccc13)CCC2: > 100 µM
- N#CC1=C(N)Oc2cc(O)ccc2C1c1cccc2ccccc12 (centres undefined): 19.7 µM
- S=C1SSC2N=CC=CC12 (centres undefined): > 100 µM

q: State its TGI: CCOC(=O)/C=C(/C)Sc1cc(O)c2ccccc2c1O
a: 4.66 µM

q: Kindly indicate its recorded TGI. Item: Cc1nc(-[n+]2nc(-c3ccncc3)nn2-c2ccccc2)sc1C
a: 76.5 µM
